Test system: Plasmodium berghei
Test: Screen against P. berghei liver stage (PbLuc), transformed with Luciferase, at 10uM
Type: functional, HepG2
Settings: tested at 10 uM
The campaign covered roughly 69,000 compounds. About 8,600 (12%) showed an effect of 50% or more. The full list was thinned out, with strong results kept by preference.
INHIBITION for assorted compounds
value.type: INHIBITION (%)

- compound: "COc1ccc(C(=O)C2CCCN(c3cc(N)ncn3)C2)c(C)c1 (stereo not given)"
  value.type: "INHIBITION"
  data.value: 60.1
- compound: "O=S(=O)(c1ccccc1F)N1CCCC(c2nccs2)C1 (stereo not given)"
  value.type: "INHIBITION"
  data.value: 61.7
- compound: "O=C([C@H]1CC[C@@H]2[C@@H](CCN2C2CCCC2)O1)N1CCOCC1"
  value.type: "INHIBITION"
  data.value: -3.26
- compound: "COc1ccc(C(=O)C2CCCN(c3nccc(N)n3)C2)c(C)c1 (stereo not given)"
  value.type: "INHIBITION"
  data.value: 51.2
- compound: "COc1cc(N2CCCC(c3ncc[nH]3)C2)ncn1 (stereo not given)"
  value.type: "INHIBITION"
  data.value: 28.4
- compound: "CCc1nc2n(n1)CCCC2NC(=O)Nc1cc(OC)ccc1C (stereo not given)"
  value.type: "INHIBITION"
  data.value: 13.5
- compound: "COc1cccc(C(=O)C2CCCN(c3nccc(N)n3)C2)c1 (stereo not given)"
  value.type: "INHIBITION"
  data.value: 43
- compound: "O=C1c2cccnc2OC(CN2CCOCC2)CN1CC1CC1 (stereo not given)"
  value.type: "INHIBITION"
  data.value: 24.5
- compound: "CCc1ccccc1OCCN(C)C(=O)CCN1CCCO1"
  value.type: "INHIBITION"
  data.value: 42.4
- compound: "NC(=O)C1(CCCc2ccccn2)CCCN(c2ncccn2)C1 (stereo not given)"
  value.type: "INHIBITION"
  data.value: -6.3
- compound: "NC(=O)CN1CCCC(CCCc2ccccn2)(C(N)=O)C1 (stereo not given)"
  value.type: "INHIBITION"
  data.value: -0.902
- compound: "CC(=O)N1CCC2(CCN(C(=O)c3ccc(C)c(C(F)(F)F)c3)CC2)C1"
  value.type: "INHIBITION"
  data.value: 16.5
- compound: "CN1CCCC(CCCc2cccnc2)(C(N)=O)C1 (stereo not given)"
  value.type: "INHIBITION"
  data.value: 50.1
- compound: "CC(C)c1nn(C)c(Cl)c1CNCC(=O)N1CCN(C)CC1"
  value.type: "INHIBITION"
  data.value: 26.4
- compound: "COc1ccc(C(=O)N2C[C@@H](CN3CCCC3)[C@@H](CO)C2)c(C)c1"
  value.type: "INHIBITION"
  data.value: 34.9
- compound: "COc1ccc2ccccc2c1CNCC1CCS(=O)(=O)C1 (stereo not given)"
  value.type: "INHIBITION"
  data.value: 46.4
- compound: "NC(=O)C1(CCCc2ccccn2)CCCN(Cc2ccncc2)C1 (stereo not given)"
  value.type: "INHIBITION"
  data.value: 54.5
- compound: "O=C(NCC1Cn2nnc(-c3ccsc3)c2CO1)N1CCCC1 (stereo not given)"
  value.type: "INHIBITION"
  data.value: 2.26
- compound: "CN(C)C(=O)C1CN(c2ncccn2)CCN1C (stereo not given)"
  value.type: "INHIBITION"
  data.value: 25.8
- compound: "CCOC(=O)C1CCCN(c2nccc(-n3nc(C)cc3C)n2)C1 (stereo not given)"
  value.type: "INHIBITION"
  data.value: 1.74
- compound: "CCc1nc(C)cc(N2CCCC(C(=O)c3ccc(OC)cc3C)C2)n1 (stereo not given)"
  value.type: "INHIBITION"
  data.value: 83.9
- compound: "Cc1nn(CCN2CCSCC2)cc1CNCc1ccccn1"
  value.type: "INHIBITION"
  data.value: 23.5
- compound: "Cc1c(Br)cc2c(c1C)OCC(N(C)C)C2=O (stereo not given)"
  value.type: "INHIBITION"
  data.value: 24.8
- compound: "CNC(=O)Nc1cc(-c2ccc(Br)cc2)nn1CCO"
  value.type: "INHIBITION"
  data.value: -4.74
- compound: "CCc1ccccc1OCCN(C)C(=O)CN1CCCC1"
  value.type: "INHIBITION"
  data.value: 59.1
